// GI50 lookup, one value per entry
test system: DMS-114; assay: NCI tumour cell line growth inhibition, 48 h
Calls of active or inactive are those of the source. Cut-off read from the data, not from the text of the source: active = GI50 up to about 1.1 µM and inactive = higher.

CCCNC(=S)NNC(=O)CSc1nc(-c2ccccc2)c(-c2ccccc2)[nH]1 : > 100 µM (inactive)

Give the measured GI50 for CC(=O)O[C@]12CCC[C@H]1C1(O)C(O)CCC[C@H]12 (stereo not given in full) > 100 µM (inactive)

Give the measured GI50 for C/C=C(/CCCCNCCCC)[Si](C)(C)C 14.6 µM (inactive)

Give the measured GI50 for O=C1NC2=C(CCCC/C2=N\O)C12CCCCC2 > 100 µM (inactive)

Give the measured GI50 for Cc1cc(Cl)ccc1NC(=O)C(=O)Cc1ccc([N+](=O)[O-])c([N+](=O)[O-])c1CC(=O)C(=O)Nc1ccc(Cl)cc1C 60.4 µM (inactive)

Give the measured GI50 for CCCCN(CC)C(=O)C(=O)Cc1nc2ccc(C(=O)c3ccccc3)cc2nc1O 53.7 µM (inactive)

Give the measured GI50 for CC(/C=C/C(=O)c1sc(C(N)=S)nc1C)=C\c1ccccc1 17 µM (inactive)

Give the measured GI50 for Nc1nc(NCCO)c(N=O)c(=O)[nH]1 > 100 µM (inactive)

Give the measured GI50 for Cn1cc(NC(=O)c2cc(NC(=O)Nc3cc(C(=O)Nc4cc(C(=O)NCCC(=N)N)n(C)c4)n(C)c3)cn2C)cc1C(=O)NCCC(=N)N 49.3 µM (inactive)

Give the measured GI50 for C=CCN1/C(=C(\C#N)c2nc3ccccc3[nH]2)Sc2c1nc[nH]c2=O > 100 µM (inactive)
